Biological target: Serine/threonine-protein kinase TBK1 (Homo sapiens);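 note: values are mean inhibition of TBK1, screened as part of the GSK published kinase inhibitor set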
Sequence (whole entry): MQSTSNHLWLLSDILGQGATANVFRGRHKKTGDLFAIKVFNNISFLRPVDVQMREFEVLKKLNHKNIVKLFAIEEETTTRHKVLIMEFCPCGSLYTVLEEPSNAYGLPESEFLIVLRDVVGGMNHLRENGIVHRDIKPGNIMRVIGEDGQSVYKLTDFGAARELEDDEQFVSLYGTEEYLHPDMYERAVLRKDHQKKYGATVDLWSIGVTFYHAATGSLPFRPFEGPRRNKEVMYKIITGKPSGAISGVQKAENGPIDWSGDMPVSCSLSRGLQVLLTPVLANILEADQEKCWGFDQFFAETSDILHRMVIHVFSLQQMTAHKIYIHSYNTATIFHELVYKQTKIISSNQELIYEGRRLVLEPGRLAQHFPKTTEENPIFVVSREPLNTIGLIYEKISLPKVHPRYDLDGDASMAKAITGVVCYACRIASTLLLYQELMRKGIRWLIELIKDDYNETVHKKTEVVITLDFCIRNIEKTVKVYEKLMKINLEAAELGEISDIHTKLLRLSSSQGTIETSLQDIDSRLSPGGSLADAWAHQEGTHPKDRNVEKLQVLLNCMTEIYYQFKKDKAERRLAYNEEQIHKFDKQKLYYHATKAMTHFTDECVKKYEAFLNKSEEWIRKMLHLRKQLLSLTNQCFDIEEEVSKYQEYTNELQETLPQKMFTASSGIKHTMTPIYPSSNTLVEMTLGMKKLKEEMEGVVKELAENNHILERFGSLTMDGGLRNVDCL
Conditions: at 1 µM
property_measured: inhibition (%)
Please state the figure in %; there is no need to write the unit.

Reference set, count: 3
{"structure": "COc1cccc(-n2ncc3c(N/N=C/c4ccc(C)cc4)ncnc32)c1", "experimental_value": 5.4}
{"structure": "CS(=O)(=O)Nc1cccc(-c2ccc3c(NC(=O)C4CC4)n[nH]c3c2)c1", "experimental_value": 3.56}
{"structure": "Cc1ccc(C(=O)NC2CC2)cc1-c1ccc2[nH]ncc2c1", "experimental_value": -1.07}

# input for lookup
Task: Serine/threonine-protein kinase TBK1 (Homo sapiens) / inhibition / "C[C@@H](Oc1cc(-n2cnc3ccc(OC[C@@H](O)CO)cc32)sc1C(N)=O)c1ccccc1Cl" : value?
Output: -0.29

Origin of values: ChEMBL document CHEMBL1961873
